Where do these numbers come from? They come from patent US20250376479A1.

Test system: MDA-MB-468
test: Cytotoxicity test, luminescent cell viability
Type: cell-based
conditions: Homo sapiens; MDA-MB-468 (Breast cancer), 72-hour incubation
measure_name: IC50 (nM)
Enter your answer as a number in nM; do not include the unit.

Previously resolved entries follow.
CC[C@@]1(O)C(=O)OCc2c1cc1n(c2=O)Cc2c-1nc1cc(F)c(C)c3c1c2[C@H](NC(=O)CC(C)C)CC3 = 2.1
CC[C@@]1(O)C(=O)OCc2c1cc1n(c2=O)Cc2c-1nc1cc(F)c(C)c3c1c2[C@H](NC(=O)C(C)C)CC3 = 2.9

Exercise: What does the record list as IC50 for CC[C@@]1(O)C(=O)OCc2c1cc1n(c2=O)Cc2c-1nc1cc(F)c(C)c3c1c2[C@H](NC(=O)CN(C)C)CC3 ?
Solution: 10.8

Exercise: What IC50 value was documented for this molecule, CC[C@@]1(O)C(=O)OCc2c1cc1n(c2=O)Cc2c-1nc1cc(F)c(C)c3c1c2[C@H](NC(=O)C1CCC1)CC3 ?
Solution: 2.5

Exercise: Give the measured IC50 of CC[C@@]1(O)C(=O)OCc2c1cc1n(c2=O)Cc2c-1nc1cc(F)c(C)c3c1c2[C@H](NC(=O)C1CCCO1)CC3 (some centres unmarked) .
Solution: 4.8
